Just for reference, patent US11661403B2 is where these values come from.

# Test system: 8XTBD luciferase reporter (YAP) in HEK293T cells
# procedure.details: YAP Reporter Assay
# Format: cell-based
# particulars: Homo sapiens, HEK-293T; HEK293T cells stably transfected with 8XTBD luciferase reporter and pRLTK; 24-hr incubation; top concentration 3 μM; read-out: Firefly Luciferase IC50
Provide the reported IC50 of each item.

Answered cases to consult:
{"compound": "CC(O)(CC#N)c1nnc(-c2ccccc2Nc2ccc(C(F)(F)F)cc2)o1 (centres unmarked)", "test.result": "< 100 nM"}
{"compound": "CNC(C)c1nnc(-c2ccccc2Nc2ccc(C(F)(F)F)cc2)o1 (centres unmarked)", "test.result": "100 to 1000 nM"}
{"compound": "FC(F)(F)c1ccc(Nc2ccccc2-c2nnc(C3CCCO3)o2)cc1 (centres unmarked)", "test.result": "100 to 1000 nM"}
{"compound": "CC(C)(C(=O)O)c1nnc(-c2ccccc2Nc2ccc(C(F)(F)F)cc2)o1", "test.result": "100 to 1000 nM"}
{"compound": "CN(C#N)CC1(c2nnc(-c3ccccc3Nc3ccc(C(F)(F)F)cc3)o2)CC1", "test.result": "< 100 nM"}

Batch: IC50 for all items listed.
1. CC(C)(C)OC(=O)NC1(c2nnc(-c3ccccc3Nc3ccc(C(F)(F)F)cc3)o2)CC1
2. N#CN1CCC(c2nnc(-c3ccccc3Nc3ccc(C(F)(F)F)cc3)o2)C1 (centres unmarked)
3. N#CCc1nnc(-c2ccccc2Nc2ccc(C(F)(F)F)cc2)o1

["100 to 1000 nM", "100 to 1000 nM", "100 to 1000 nM"]
